These entries and their values trace back to patent US12448399B2.

DC50 by entry:
# assayed-target: KRas-G12D (Homo sapiens, UniProt P01116, G12D)
# Construct: insert the HiBiT tag onto the N-terminus of one or more of the endogenous KRas alleles; host or cells: AsPC-1 HiBiT-KRasG12D knock-in clone (one tagged allele, two untagged KRasG12D alleles)
# Sequence (P01116 1-188 isoform P01116-2 G12D): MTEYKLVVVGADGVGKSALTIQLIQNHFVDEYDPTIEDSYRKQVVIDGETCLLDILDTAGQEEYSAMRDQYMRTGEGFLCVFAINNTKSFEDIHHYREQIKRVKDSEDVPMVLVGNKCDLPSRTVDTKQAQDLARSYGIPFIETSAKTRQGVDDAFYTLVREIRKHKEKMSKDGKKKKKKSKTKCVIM
# protocol: HiBiT Degradation Assay (G12D), AsPC-1 HiBiT-KRasG12D cells, 24 hr
# Type: cell-based
# condition-set: AsPC-1 cells
assay-endpoint: DC50

INSERT INTO measurements (compound, assayed_target, assay_endpoint, value_measured) VALUES
  ('CCc1cccc2cc(O)cc(-c3ncc4c(N5CC6CCC(C5)N6)nc(OCCN5CCC(CN6CCC(Oc7cccc8c7C(=O)N(C7CCC(=O)NC7=O)C8=O)CC6)CC5)nc4c3F)c12 (centres unmarked)', 'KRas-G12D (Homo sapiens, UniProt P01116, G12D)', 'DC50', '> 1 µM'),
  ('CCc1cccc2cc(O)cc(-c3ncc4c(N5CC6CCC(C5)N6)nc(OCCN5CCC(O[C@H]6C[C@H](OC7CCN(c8cccc9c8CN(C8CCC(=O)NC8=O)C9=O)CC7)C6)CC5)nc4c3F)c12 (some centres unmarked)', 'KRas-G12D (Homo sapiens, UniProt P01116, G12D)', 'DC50', '0.1 to 5.25 µM'),
  ('C#Cc1c(F)ccc2cc(O)cc(-c3ncc4c(C5CC6CCC(C5)N6)nc(OCCN5CCC6(CC5)CCN(CC5CCN(c7ccc8c(c7)CN(C7CCC(=O)NC7=O)C8=O)CC5)CC6)nc4c3F)c12 (centres unmarked)', 'KRas-G12D (Homo sapiens, UniProt P01116, G12D)', 'DC50', '< 5.1 µM'),
  ('C#Cc1c(F)ccc2cc(O)cc(-c3ncc4c(N5CC6CCC(C5)N6)nc(OCCN5CCC(CC6CCN(CC7CCN(c8ccc9c(c8)n(C)c(=O)n9C8CCC(=O)NC8=O)CC7)CC6)CC5)nc4c3F)c12 (centres unmarked)', 'KRas-G12D (Homo sapiens, UniProt P01116, G12D)', 'DC50', '< 5.1 µM'),
  ('C#Cc1c(F)ccc2cc(O)cc(-c3ncc4c(N5CC6CCC(C5)N6)nc(OCC5(CN6CCC(CC7CCN(c8ccc9c(c8)n(C(C)C)c(=O)n9C8CCC(=O)NC8=O)CC7)CC6)CC5)nc4c3F)c12 (centres unmarked)', 'KRas-G12D (Homo sapiens, UniProt P01116, G12D)', 'DC50', '< 5.1 µM');

* * *

# assayed-target: KRas-G12D (Homo sapiens, UniProt P01116, G12D)
# Construct: insert the HiBiT tag onto the N-terminus of one or more of the endogenous KRas alleles; host or cells: AsPC-1 HiBiT-KRasG12D knock-in clone (one tagged allele, two untagged KRasG12D alleles)
# protocol: HiBiT Degradation Assay (G12D), AsPC-1 HiBiT-KRasG12D cells, 24 hr
# Assay type: cell-based
# condition-set: AsPC-1 cells
# Description: AsPC-1 (CRL-1682) cells were purchased from ATCC and are homozygous for the G12D mutation in KRas. […] AsPC-1 HiBiT-KRasG12D cells were plated at 9000 or 15,000 cells/well in a 384 well plate (Corning #3770). […] Plates were then allowed to equilibrate to RT and fluorescence was measured using a Perkin-Elmer EnVision. After completion of the fluorescence read, the liquid from each well was removed and the cells were washed with PBS. […]
assay-endpoint: DC50

INSERT INTO assay_data (compound, value_measured) VALUES
  ('CCc1c(F)ccc2cc(O)cc(-c3ncc4c(N5CC6CCC(C5)N6)nc(OCCN5CCC(CC6CCN(CC7CCN(c8ccc9c(c8)n(C(C)C)c(=O)n9C8CCC(=O)NC8=O)CC7)CC6)CC5)nc4c3F)c12 (stereo not drawn) [Compound 212]', '< 5.1 µM'),
  ('CCc1c(F)ccc2cc(O)cc(-c3ncc4c(N5CC6CCC(C5)N6)nc(OCCN5CCC6(CC5)CCN(CC5CCN(c7ccc8c(c7)n(C)c(=O)n8C7CCC(=O)NC7=O)CC5)CC6)nc4c3F)c12 (stereo not drawn) [Compound 171]', '< 5.1 µM'),
  ('CCc1cccc2cc(O)cc(-c3ncc4c(N5CC6CCC(C5)N6)nc(OCCN5CCC(CC6CCN(c7cccc8c7n(C)c(=O)n8C7CCC(=O)NC7=O)CC6)CC5)nc4c3F)c12 (stereo not drawn) [Compound 28]', '0.25 to 1 µM'),
  ('C#Cc1c(F)ccc2cc(O)cc(-c3ncc4c(N5CC6CCC(C5)N6)nc(OCCN5CCC(CN6CCC(CC7CCN(c8ccc9c(c8)n(C(C)C)c(=O)n9C8CCC(=O)NC8=O)CC7)CC6)CC5)nc4c3F)c12 (stereo not drawn) [Compound 80]', '< 5.1 µM'),
  ('CCc1c(F)ccc2cc(O)cc(-c3ncc4c(N5CC6CCC(C5)N6)nc(OC[C@@H]5C[C@@H](OC6CCN(CC7CCN(c8ccc9c(c8)n(C(C)C)c(=O)n9C8CCC(=O)NC8=O)CC7)CC6)CN5C)nc4c3F)c12 (stereo partly drawn) [Compound 209]', '< 5.1 µM'),
  ('C#Cc1c(F)ccc2cc(O)cc(-c3ncc4c(N5CC6CCC(C5)N6)nc(OC[C@@H]5C[C@@H](OC6CCN(CC7(F)CCN(c8ccc9c(c8F)CN(C8CCC(=O)NC8=O)C9=O)CC7)CC6)CN5C)nc4c3F)c12 (stereo partly drawn) [Compound 112]', '< 5.1 µM'),
  ('CCc1cccc2cc(O)cc(-c3nc(N4CC5CCC(C4)N5)c4cnc(OCCN5CCC(CC6CCN(CC7CCN(c8cccc9c8CN(C8(C)CCC(=O)NC8=O)C9=O)CC7)CC6)CC5)nc4c3F)c12 (stereo not drawn) [Compound 44]', '> 1 µM'),
  ('C#Cc1c(F)ccc2cc(O)cc(-c3ncc4c(N5CC6CCC(C5)N6)nc(OCCN5CCC(CC6CCN(CC7CCN(c8cccc9c8C(=O)N(C8CCC(=O)NC8=O)C9=O)CC7)CC6)CC5)nc4c3F)c12 (stereo not drawn) [Compound 75]', '< 5.1 µM'),
  ('C#Cc1c(F)ccc2cc(O)cc(-c3ncc4c(N5CC6CCC(C5)N6)nc(OCCN5CCC(CN6CCN(CC7CCN(c8cc(C)c9c(c8F)CN(C8CCC(=O)NC8=O)C9=O)CC7)CC6)CC5)nc4c3F)c12 (stereo not drawn) [Compound 148]', '< 5.1 µM'),
  ('C#Cc1c(F)ccc2cc(O)cc(-c3ncc4c(N5CC6CCC(C5)N6)nc(OCCN5CCC6(CC5)CN(CC5CCN(c7cccc8c7CN(C7CCC(=O)NC7=O)C8=O)CC5)C6)nc4c3F)c12 (stereo not drawn) [Compound 135]', '0.25 to 1 µM'),
  ('CCc1c(F)ccc2cc(O)cc(-c3ncc4c(N5CC6CCC(C5)N6)nc(OCCN5CCC(CC6CCN(CC7CCN(c8ccc9c(c8)n(C)c(=O)n9C8CCC(=O)NC8=O)CC7)CC6)CC5)nc4c3F)c12 (stereo not drawn) [Compound 205]', '< 5.1 µM'),
  ('C#Cc1c(F)ccc2cc(O)cc(-c3ncc4c(N5CC6CCC(C5)N6)nc(OCCN5CCC(CC6CCN(CC7CCN(c8cc(F)c9c(c8F)n(C)c(=O)n9C8CCC(=O)NC8=O)CC7)CC6)CC5)nc4c3F)c12 (stereo not drawn) [Compound 199]', '< 5.1 µM'),
  ('CCc1cccc2cc(O)cc(-c3ncc4c(N5CC6CCC(C5)N6)nc(OCCN5CCC(c6ccc7c(c6)CN(C6CCC(=O)NC6=O)C7=O)CC5)nc4c3F)c12 (stereo not drawn) [Compound 38]', '0.1 to 5.25 µM'),
  ('C#Cc1c(F)ccc2cc(O)cc(-c3ncc4c(N5CC6CCC(C5)N6)nc(OCCN5CCC6(CC5)CN(CC5CCN(c7cc(C)c8c(c7F)CN(C7CCC(=O)NC7=O)C8=O)CC5)C6)nc4c3F)c12 (stereo not drawn) [Compound 150]', '< 5.1 µM'),
  ('C#Cc1c(F)ccc2cc(O)cc(-c3nc(N4CC5CCC(C4)N5)c4cnc(OCCN5CCC6(CC5)CN(CC5CCN(c7ccc8c(c7F)CN(C7CCC(=O)NC7=O)C8=O)CC5)C6)nc4c3F)c12 (stereo not drawn) [Compound 127]', '< 5.1 µM'),
  ('CCc1cccc2cc(O)cc(-c3ncc4c(N5CC6CCC(C5)N6)nc(OCCN5CCC(O[C@H]6CC[C@H](OC7CCN(c8cccc9c8CN(C8CCC(=O)NC8=O)C9=O)CC7)CC6)CC5)nc4c3F)c12 (stereo partly drawn) [Compound 23]', '0.25 to 1 µM'),
  ('CCc1c(F)ccc2cc(O)cc(-c3ncc4c(N5CC6CCC(C5)N6)nc(OCCN5CCC(F)(CC6CCN(CC7CCN(c8ccc9c(c8)n(C)c(=O)n9C8CCC(=O)NC8=O)CC7)CC6)CC5)nc4c3F)c12 (stereo not drawn) [Compound 182]', '< 5.1 µM'),
  ('C#Cc1c(F)ccc2cc(O)cc(-c3ncc4c(N5CC6CCC(C5)N6)nc(OCCN5CCC(CN6CCC(CC7CCN(c8ccc9c(c8F)n(C(C)C)c(=O)n9C8CCC(=O)NC8=O)CC7)CC6)CC5)nc4c3F)c12 (stereo not drawn) [Compound 167]', '< 5.1 µM');
